test system: ATP; assay: switch fluorescence ratio, 500 uM ATP over buffer (Cy3 cluster intensity, sum of 5 cycles each) (fold (ratio)); higher = stronger signal-on switching upon ATP binding; sequences stand for … in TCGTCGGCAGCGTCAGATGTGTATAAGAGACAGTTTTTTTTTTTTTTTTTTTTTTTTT…TC; conditions: aptamer strand: ATP DNA aptamer (quencher-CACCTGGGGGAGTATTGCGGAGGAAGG + anchor), 100 nM annealed; ATP concentration: 500 uM;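 also: ATP exposure 15 min at 22 °C before imaging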
Below, each of the sequences is paired with its reported switch fluorescence ratio value.

Take a look at these entries with their results.
TCGGTAATAT
1.08
TAAAGATTTC
1.01

stdin: What does the record list as switch fluorescence ratio for `TTATCATTC` ?
stdout: 1.01

stdin: What does the record list as switch fluorescence ratio for `AACCTTTTCA` ?
stdout: 1.07

stdin: What does the record list as switch fluorescence ratio for `ATTTTGGGGC` ?
stdout: 1.03

stdin: What does the record list as switch fluorescence ratio for `AGGGATTACG` ?
stdout: 1.01

stdin: What does the record list as switch fluorescence ratio for `TTCGTTAGAA` ?
stdout: 1.01

stdin: What does the record list as switch fluorescence ratio for `GTCGTATGAT` ?
stdout: 0.999

stdin: What does the record list as switch fluorescence ratio for `CGTGTGGCGT` ?
stdout: 1.05

stdin: What does the record list as switch fluorescence ratio for `TCACTGTTGT` ?
stdout: 0.993

stdin: What does the record list as switch fluorescence ratio for `GAGGATTCGG` ?
stdout: 0.986

stdin: What does the record list as switch fluorescence ratio for `CGGATGTTGC` ?
stdout: 1.03

stdin: What does the record list as switch fluorescence ratio for `CTATATTAGG` ?
stdout: 0.997

stdin: What does the record list as switch fluorescence ratio for `CTTTTGTGTC` ?
stdout: 0.987

stdin: What does the record list as switch fluorescence ratio for `ATAACAAGAC` ?
stdout: 1.32

stdin: What does the record list as switch fluorescence ratio for `ACGGGGCCGG` ?
stdout: 1.06

stdin: What does the record list as switch fluorescence ratio for `CTCAAAAGTT` ?
stdout: 1.01

====

test system: ATP; assay: switch fluorescence ratio, 500 uM ATP over buffer (Cy3 cluster intensity, sum of 5 cycles each) (fold (ratio)); higher = stronger signal-on switching upon ATP binding; sequences stand for … in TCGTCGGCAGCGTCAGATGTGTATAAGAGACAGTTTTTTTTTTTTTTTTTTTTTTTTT…TC; settings: aptamer strand: ATP DNA aptamer (quencher-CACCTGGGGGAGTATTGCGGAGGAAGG + anchor), 100 nM annealed; ATP concentration: 500 uM;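 also: ATP exposure 15 min at 22 °C before imaging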
endpoint: switch fluorescence ratio

Take a look at these entries with their results.
GATTGTGGGG
0.969
TAATGGGTGA
1.03
TCCAACTGCA
1.5
CCGGGGTATT
1.07
CGGAACATGC
1.6

stdin: What does the record list as switch fluorescence ratio for `GTGATAGTGG` ?
stdout: 0.939

stdin: What does the record list as switch fluorescence ratio for `TTTGCGGGGG` ?
stdout: 1.01

stdin: What does the record list as switch fluorescence ratio for `GGGCGTTTCG` ?
stdout: 1

stdin: What does the record list as switch fluorescence ratio for `GACAGAGGGT` ?
stdout: 1.04

stdin: What does the record list as switch fluorescence ratio for `ACGTGTAGGC` ?
stdout: 1.01

====

system: ATP; experiment: switch fluorescence ratio, 500 uM ATP over buffer (Cy3 cluster intensity, sum of 5 cycles each) (fold (ratio)); higher = stronger signal-on switching upon ATP binding; sequences stand for … in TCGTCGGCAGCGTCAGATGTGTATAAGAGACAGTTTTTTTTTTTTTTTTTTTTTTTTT…TC; settings: aptamer strand: ATP DNA aptamer (quencher-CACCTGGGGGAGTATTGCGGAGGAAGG + anchor), 100 nM annealed; ATP concentration: 500 uM;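 also: ATP exposure 15 min at 22 °C before imaging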
endpoint: switch fluorescence ratio
The response must contain the number and no unit.

Take a look at these entries with their results.
TAAGTATGAC
0.982
TTTCAGCCGG
1.04
ATTATATGAC
1.06
AGGATTTTAG
1
ATGTTTCACA
0.951
AGTCACTTAG
1.05
TGATATTTTA
0.986
TGATTAGAGT
1.01

stdin: What does the record list as switch fluorescence ratio for `TTATTGTTAG` ?
stdout: 0.978

stdin: What does the record list as switch fluorescence ratio for `GTGGTTGGGT` ?
stdout: 0.979

stdin: What does the record list as switch fluorescence ratio for `GGTATTTTGC` ?
stdout: 0.979

stdin: What does the record list as switch fluorescence ratio for `GCTATCATCG` ?
stdout: 0.997

stdin: What does the record list as switch fluorescence ratio for `AAGCGGGTTT` ?
stdout: 0.96

stdin: What does the record list as switch fluorescence ratio for `TTTGCCTTGC` ?
stdout: 1.11

stdin: What does the record list as switch fluorescence ratio for `GGATCAGAAG` ?
stdout: 1

stdin: What does the record list as switch fluorescence ratio for `ACTCAAGGCT` ?
stdout: 1.07

stdin: What does the record list as switch fluorescence ratio for `CGAGTTAGGG` ?
stdout: 0.991
